System: protein kinase C (PKC)
Construct: this enzyme activity was enriched, starting from a chicken gizzard extract; from tissue; host or cells: chicken gizzard
Experiment: Inhibition of PS/DO-mediated protein kinase C activity (32P incorporation into histone H-1)
Type: biochemical, chicken
Details: test substance 10^-5 mol/l; activity with PKC activators and without test substance = 100%
Counter-ions that a name gives are not always drawn.
This section presents compounds with their documented inhibition at 10 µM values.
Number only, in %; omit the unit.

Examples with answers:
compound	assayed.system	quantitative.readout
CCCCCCCCCCCCCCCCCCOCC(CN(Cc1ccccc1)Cc1ccccc1)OC(C)=O (racemic) [Example 1.b, acetate hydrochloride]	protein kinase C (PKC)	22
CCCCCCCC/C=C\CCCCCCCCOCC(CN(C)C)OC(C)=O (racemic) [Example 1.m, acetate hydrochloride]	protein kinase C (PKC)	48
CCCCCCCCCCCCCCCCCCOCC(CN1CCNCC1C)OC(C)=O (stereo not shown)	protein kinase C (PKC)	61
CCCCCCCCCCCCCCCCCCOCC(CNC)OC(C)=O (racemic) [Example 2.a, acetate hydrochloride]	protein kinase C (PKC)	35
CCCCCCCCCCCCCCCCOCC(CN(C)C)OC(C)=O (racemic) [Example 1.f, acetate hydrochloride]	protein kinase C (PKC)	27

# inhibition at 10 µM lookup, item CCCCCCCCCCCCCCCCCCSCC(CN(C)C)OC(C)=O (racemic) [Example 3, acetate hydrochloride]
22

Same lookup for CCCCCCCCCCCCCCCCCCOCC(CN)OC(C)=O (racemic) [Example 2, acetate hydrochloride] , please.
18

###

Tested on: protein kinase C (PKC)
Construct: this enzyme activity was enriched, starting from a chicken gizzard extract; from tissue; host or cells: chicken gizzard
Assay: Inhibition of PS/DO-mediated protein kinase C activity (32P incorporation into histone H-1)
Format: biochemical, chicken
Settings: test substance 10^-4 mol/l; activity with PKC activators and without test substance = 100%
Method: 1. Inhibition of the enzyme protein kinase C. […] The activity of the enzyme was determined via the incorporation of phosphorus 32-labelled phosphate into the protein histon H-1, which is phosphorylatable by PKC. […] The kinase activity measured under standard conditions in the presence of PKC activators (and without test substance) was, in each case, taken as being 100% and the inhibitory action of the compounds of general formula (I) referred thereto as a percentage.
Structures can show the parent of a compound that is named as a salt.
This section presents compounds with their documented inhibition at 100 µM values.
Number only, in %; omit the unit.

compound	assayed.system	inhibition at 100 µM [%]
CCCCCCCCCCCCCCCCCCOCC(CN1CCCCC1)OC(C)=O (racemic) [Example 1.a, acetate hydrochloride]	protein kinase C (PKC)	25
CCCCCCCCCCCCCCCCCCSCC(CN(C)C)OC(C)=O (racemic) [Example 3, acetate hydrochloride]	protein kinase C (PKC)	70
CCCCCCCCCCCCCCCCCCOCC(CN)OC(C)=O (racemic) [Example 2, acetate hydrochloride]	protein kinase C (PKC)	44

Lab note: need inhibition at 100 µM for CCCOCC(CN(C)C)OC(=O)CC (racemic) [Example 1.c, oxalate] on protein kinase C (PKC), anyone have it?
9

Same lookup for CCCCCCCCCCCCCCCCCCOCC(CN(C)C)OC(C)=O (racemic) [Example 1, acetate hydrochloride] , please.
86

###

Tested on: protein kinase C (PKC)
Construct: this enzyme activity was enriched, starting from a chicken gizzard extract; from tissue; host or cells: chicken gizzard
Assay: Inhibition of PS/DO-mediated protein kinase C activity (32P incorporation into histone H-1)
Type: biochemical, chicken
Conditions: test substance 10^-6 mol/l; activity with PKC activators and without test substance = 100%
Where a name gives a salt, the structure may show the parent alone.
readout: inhibition at 1 µM (%)
Number only, in %; omit the unit.

Examples with answers:
molecule	inhibition at 1 µM [%]
CCCCCCCCCCCCCCCCCCOCC(CN1CCNCC1C)OC(C)=O (stereo not shown) [Example 1.d]	18
CCCCCCCCCCCCCCCCCCOCC(CNC)OC(C)=O (racemic) [Example 2.a, acetate hydrochloride]	13
CCCCCCCCCCCCCCCCCCOCC(CN(C)C)OC(C)=O (racemic) [Example 1, acetate hydrochloride]	24

Switching to the query record.
# inhibition at 1 µM lookup, item CCCCCCCC/C=C\CCCCCCCCOCC(CN(C)C)OC(C)=O (racemic) [Example 1.m, acetate hydrochloride]
14

###

Test system: protein kinase C (PKC)
Construct: this enzyme activity was enriched, starting from a chicken gizzard extract; from tissue; host or cells: chicken gizzard
Test: Inhibition of PS/DO-mediated protein kinase C activity (32P incorporation into histone H-1)
Format: biochemical, chicken
Conditions: test substance 10^-5 mol/l; activity with PKC activators and without test substance = 100%
Method: 1. Inhibition of the enzyme protein kinase C. […] The activity of the enzyme was determined via the incorporation of phosphorus 32-labelled phosphate into the protein histon H-1, which is phosphorylatable by PKC. […] The kinase activity measured under standard conditions in the presence of PKC activators (and without test substance) was, in each case, taken as being 100% and the inhibitory action of the compounds of general formula (I) referred thereto as a percentage.
Where a name gives a salt, the structure may show the parent alone.
readout: inhibition at 10 µM (%)
Number only, in %; omit the unit.

Examples with answers:
molecule	scale.unit	inhibition at 10 µM
CCCCCCCCCCCCCCCCCCCCOCC(CN(C)C)OC(C)=O (racemic) [Example 1.g, acetate hydrochloride]	%	39
CCCCCCCCCCCCCCOCC(CN(C)C)OC(C)=O (racemic) [Example 1.e, acetate hydrochloride]	%	14

# inhibition at 10 µM lookup, item CCCCCCCCCCCCCCC(C)OCC(CN(C)C)OC(C)=O (racemic) [Example 1.l, acetate hydrochloride]
31

Same lookup for CCCCCCCCCCCCCCCCCCOCC(CN(C)C)OC(C)=O (racemic) [Example 1, acetate hydrochloride] , please.
61
